Quick reference for melting point among some compounds
Measurement name: melting point

1. O=C(Nc1cccc(C(F)(F)F)c1)Nc1ncc(Oc2ccc(C(F)(F)F)cc2)cn1    232.5 to 234.8 °C
2. O=C(Nc1cccc(C(F)(F)F)c1)N[C@H]1C[C@@H](Oc2ccc(C(F)(F)F)cc2)C1    166.6 to 168.5 °C
3. N#Cc1cc(F)cc(NC(=O)N[C@H]2CC[C@H](Oc3ccc(C(F)(F)F)cc3)CC2)c1 [Compound 9-VI]    219.8 to 222 °C
4. N#Cc1cc(NC(=O)N[C@H]2CC[C@H](Oc3ccc(C(F)(F)F)cc3)C2)cc(C(F)(F)F)c1    144.4 to 146.2 °C
5. N#Cc1cc(F)cc(NC(=O)N[C@H]2C[C@H](Oc3ccc(C(F)(F)F)cc3)C2)c1    182.8 to 185 °C
6. N#Cc1cc(NC(=O)Nc2ncc(Oc3ccc(C(F)(F)F)cc3)cn2)cc(C(F)(F)F)c1    263.5 to 265.5 °C
7. O=C(Nc1ccc(F)c(F)c1)N[C@H]1CC[C@H](Oc2ccc(C(F)(F)F)cc2)CC1    228.2 to 229.8 °C
8. O=C(Nc1ccc(F)c(F)c1)N[C@H]1CC[C@H](Oc2ccc(C(F)(F)F)cc2)C1    175.4 to 177.5 °C
9. N#Cc1ccc(NC(=O)N[C@H]2CC[C@H](Oc3ccc(C(F)(F)F)cc3)CC2)c(F)c1    221.6 to 223.6 °C
10. N#Cc1cccc(NC(=O)N[C@H]2C[C@H](Oc3ccc(C(F)(F)F)cc3)C2)c1    181.1 to 182.3 °C
11. Cc1ccc(F)cc1NC(=O)Nc1ncc(Oc2ccc(C(F)(F)F)cc2)cn1    224.2 to 226.5 °C
12. N#Cc1cccc(NC(=O)N[C@H]2CC[C@H](Oc3ccc(C(F)(F)F)cc3)C2)c1    160.2 to 162.1 °C
13. N#Cc1cc(NC(=O)N[C@H]2C[C@@H](Oc3ccc(C(F)(F)F)cc3)C2)cc(C(F)(F)F)c1    194.6 to 196.1 °C
14. N#Cc1cc(F)cc(NC(=O)Nc2ncc(Oc3ccc(C(F)(F)F)cc3)cn2)c1    267.5 to 270 °C
15. O=C(Nc1cccc(C(F)(F)F)c1)N[C@H]1CC[C@H](Oc2ccc(C(F)(F)F)cc2)C1    123.5 to 125.3 °C
16. O=C(Nc1cccc(F)c1F)N[C@H]1CC[C@H](Oc2ccc(C(F)(F)F)cc2)CC1    227.3 to 229.9 °C
